# measured-target: furin, P09958;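 further: purified furin at 1:10 enzyme:substrate in 50 mM HEPES pH 7.5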
# Sequence (P09958 whole entry): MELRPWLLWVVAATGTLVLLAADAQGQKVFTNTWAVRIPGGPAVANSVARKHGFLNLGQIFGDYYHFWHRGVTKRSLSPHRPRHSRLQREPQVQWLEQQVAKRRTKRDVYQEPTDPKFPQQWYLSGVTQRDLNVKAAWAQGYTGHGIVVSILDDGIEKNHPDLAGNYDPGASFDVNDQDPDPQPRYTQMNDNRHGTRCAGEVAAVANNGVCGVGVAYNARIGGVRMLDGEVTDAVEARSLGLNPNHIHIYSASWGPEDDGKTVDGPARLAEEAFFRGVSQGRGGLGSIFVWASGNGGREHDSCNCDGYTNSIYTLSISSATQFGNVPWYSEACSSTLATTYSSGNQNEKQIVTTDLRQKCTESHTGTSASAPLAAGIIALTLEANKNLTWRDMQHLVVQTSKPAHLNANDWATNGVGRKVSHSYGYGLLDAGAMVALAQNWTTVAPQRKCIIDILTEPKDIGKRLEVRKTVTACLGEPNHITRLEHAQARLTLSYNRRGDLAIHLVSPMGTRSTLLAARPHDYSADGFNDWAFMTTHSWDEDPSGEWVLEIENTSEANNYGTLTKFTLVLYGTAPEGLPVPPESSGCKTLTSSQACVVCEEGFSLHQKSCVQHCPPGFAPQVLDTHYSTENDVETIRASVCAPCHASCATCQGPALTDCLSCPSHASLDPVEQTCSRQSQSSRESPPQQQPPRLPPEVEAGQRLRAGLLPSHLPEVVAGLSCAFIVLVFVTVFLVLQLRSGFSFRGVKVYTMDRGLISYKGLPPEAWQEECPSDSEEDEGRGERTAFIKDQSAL
# experiment-notes: furin cleavage Z-score vs untreated control; higher = more cleavage, active = 3.5 or more, inactive = 1 or less, 8 variable residues between constant flanks
# assay-conditions: 7.5 min
The other results are listed elsewhere or left out. No count for the full screen is at hand.
quantity-name: furin cleavage Z-score
Respond using a number only.

Record request: furin cleavage Z-score value, item CARKKKRQSLAGNASASA [FS-2153]
0.376

Also, CAGVLTTSCGAGNASASA [HC1512] please.
-0.572

Also, CARIKRRKSLAGNASASA [FS-2953] please.
2.28

Also, CALPGNPAIAAGNASASA [HC1051] please.
0.0659
